- MEASURED ON: T1, Human SIRPαV1 (NP_542970.1), Extracellular Domain + His-Tag (human, UniProt P78324 31-373)
- T1 construct: also called huSIRPαV1; hSIRPαV1; not shown: His-Tag
- EXPERIMENT DESCRIPTION: SPR, antibody captured on Protein A/G, ECD-His analyte, 1:1 fit
# Kd per record follows
Please respond with the number in nM and leave the unit unwritten.

>>> observed("Antibody A14 (antibody, human IgG1, kappa, L234A L235A, V domains shown) VH: EVQLVESGGGLVQPGGSLRLSCAASGFTLSSYDMHWVRQAPGKGLEWVSAIGTAGDTYYTGSVKGRFTISRENAKNSLYLQMNSLRASDTAVYYCVRGGVWDDAFDIWGQGTMVTVSS VL: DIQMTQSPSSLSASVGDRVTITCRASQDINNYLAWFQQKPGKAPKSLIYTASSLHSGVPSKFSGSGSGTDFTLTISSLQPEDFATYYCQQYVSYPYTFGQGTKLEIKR")
8.13
>>> observed("Antibody A5 (antibody, human IgG1, kappa, L234A L235A, V domains shown) VH: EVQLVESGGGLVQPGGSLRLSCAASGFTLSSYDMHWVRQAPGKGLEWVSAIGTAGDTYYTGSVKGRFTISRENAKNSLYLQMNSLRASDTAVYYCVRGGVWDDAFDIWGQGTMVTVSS VL: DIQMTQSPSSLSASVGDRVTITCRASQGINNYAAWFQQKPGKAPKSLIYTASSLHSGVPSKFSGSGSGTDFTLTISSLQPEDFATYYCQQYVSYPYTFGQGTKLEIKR")
8.75

query: Please look up its Kd: Antibody A16 (antibody, human IgG1, kappa, L234A L235A, V domains shown) VH: EVQLVESGGGLVQPGGSLRLSCAASGFTLSSYDMHWVRQAPGKGLEWVSAIGTAGDTYYTGSVKGRFTISRENAKNSLYLQMNSLRAGDTAVYYCVRGGVWDDAFDIWGQGTMVTVSS VL: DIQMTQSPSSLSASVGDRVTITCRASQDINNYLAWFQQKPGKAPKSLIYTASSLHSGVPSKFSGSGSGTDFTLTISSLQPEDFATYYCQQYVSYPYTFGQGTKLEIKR
result: 7.98

Where do the numbers come from? From patent US20230012273A1.
